Endpoint: AC50. System: Beta-2 adrenergic receptor (Homo sapiens, UniProt P07550). Items follow. Also: assay procedure not described here.
Sequence (P07550 whole entry): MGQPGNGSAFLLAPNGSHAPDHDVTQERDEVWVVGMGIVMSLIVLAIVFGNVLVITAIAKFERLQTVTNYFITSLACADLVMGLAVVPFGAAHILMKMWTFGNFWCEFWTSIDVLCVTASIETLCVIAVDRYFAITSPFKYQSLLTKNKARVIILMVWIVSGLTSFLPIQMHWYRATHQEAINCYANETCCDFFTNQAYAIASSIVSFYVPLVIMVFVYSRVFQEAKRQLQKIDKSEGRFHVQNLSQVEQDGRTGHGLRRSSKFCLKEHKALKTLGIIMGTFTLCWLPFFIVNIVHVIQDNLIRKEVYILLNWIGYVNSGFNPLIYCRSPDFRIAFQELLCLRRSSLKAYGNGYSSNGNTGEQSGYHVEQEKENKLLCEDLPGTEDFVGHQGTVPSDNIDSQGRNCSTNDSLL

Compound	System Name	AC50
C#C[C@]1(O)CC[C@H]2[C@@H]3CCc4cc(O)ccc4[C@H]3CC[C@@]21C	Beta-2 adrenergic receptor (Homo sapiens, UniProt P07550)	> 10 µM

Hello, I am looking for reported AC50 with Beta-2 adrenergic receptor (Homo sapiens, UniProt P07550) for CC[C@]1(O)C[C@@H]2CN(CCc3c([nH]c4ccccc34)[C@@](C(=O)OC)(c3cc4c(cc3OC)N(C)[C@H]3[C@@](O)(C(N)=O)[C@H](O)[C@]5(CC)C=CCN6CC[C@]43[C@@H]65)C2)C1 . Could you help? > 30 µM

Hello, I am looking for reported AC50 with Beta-2 adrenergic receptor (Homo sapiens, UniProt P07550) for CC(C)(N)Cc1ccc(Cl)cc1 . Could you help? > 10 µM

Hello, I am looking for reported AC50 with Beta-2 adrenergic receptor (Homo sapiens, UniProt P07550) for CCC(=O)OCC(=O)[C@@]1(OC(=O)CC)[C@H](C)C[C@H]2[C@H]3[C@H]([C@@H](O)C[C@@]21C)[C@@]1(C)C=CC(=O)C=C1C[C@H]3Cl [ALCLOMETASONE DIPROPIONATE] . Could you help? > 30 µM

Hello, I am looking for reported AC50 with Beta-2 adrenergic receptor (Homo sapiens, UniProt P07550) for CCC(C(=O)O)c1ccc(CC(C)C)cc1 (centres undefined) . Could you help? > 30 µM

Hello, I am looking for reported AC50 with Beta-2 adrenergic receptor (Homo sapiens, UniProt P07550) for C#CC1(OC(N)=O)CCCCC1 [ETHINAMATE] . Could you help? > 10 µM

Hello, I am looking for reported AC50 with Beta-2 adrenergic receptor (Homo sapiens, UniProt P07550) for C1COC(NC(C2CC2)C2CC2)=N1 . Could you help? > 10 µM

Hello, I am looking for reported AC50 with Beta-2 adrenergic receptor (Homo sapiens, UniProt P07550) for CCOC(=O)[C@H](CCc1ccccc1)N[C@H]1CCCN2CCC[C@@H](C(=O)O)N2C1=O . Could you help? > 30 µM

Hello, I am looking for reported AC50 with Beta-2 adrenergic receptor (Homo sapiens, UniProt P07550) for C[C@@H]1O[C@@H]1P(=O)(O)O . Could you help? > 10 µM

Hello, I am looking for reported AC50 with Beta-2 adrenergic receptor (Homo sapiens, UniProt P07550) for C=C1C[C@@H]2[C@H](CC[C@]3(C)C(=O)CC[C@@H]23)[C@@]2(C)C=CC(=O)C=C12 . Could you help? > 10 µM

Hello, I am looking for reported AC50 with Beta-2 adrenergic receptor (Homo sapiens, UniProt P07550) for COc1cc2c(cc1OC)C(=O)C(CC1CCN(Cc3ccccc3)CC1)C2 (centres undefined) . Could you help? > 10 µM

Hello, I am looking for reported AC50 with Beta-2 adrenergic receptor (Homo sapiens, UniProt P07550) for CN1CCc2cccc3c2[C@H]1Cc1ccc(O)c(O)c1-3 . Could you help? > 10 µM

Hello, I am looking for reported AC50 with Beta-2 adrenergic receptor (Homo sapiens, UniProt P07550) for CCN1CCC[C@H]1CNC(=O)c1cc(S(N)(=O)=O)ccc1OC [LEVOSULPIRIDE] . Could you help? > 30 µM

Hello, I am looking for reported AC50 with Beta-2 adrenergic receptor (Homo sapiens, UniProt P07550) for CC(C(O)c1ccc(O)cc1)N1CCC(Cc2ccccc2)CC1 (centres undefined) . Could you help? > 30 µM

Hello, I am looking for reported AC50 with Beta-2 adrenergic receptor (Homo sapiens, UniProt P07550) for C[C@H]1C[C@@H]2[C@H]([C@@H](O)C[C@@]3(C)[C@H]2CC[C@]3(O)C(=O)CO)[C@@]2(C)C=CC(=O)C=C12 . Could you help? > 10 µM

Hello, I am looking for reported AC50 with Beta-2 adrenergic receptor (Homo sapiens, UniProt P07550) for C#CCN[C@@H]1CCc2ccccc21 . Could you help? > 30 µM
